Just for reference, paper PMC3130059 is where these values come from.

Biological target: dansyl-calmodulin (dansyl-CaM) (bovine) (UniProt P62157)
Assay: other fluorescence titration; 1 µM dansyl-CaM titrated with Ras protein (GppNHp form); […]; 20 mM HEPES pH 7.4, 150 mM NaCl, 1 mM CaCl2, 1 mM MgCl2; excitation 335 nm, emission at 480 nm
readoutLabel: pKd
Numbers only, as −log10 of the molar value.

[Q] Given H-Ras-(KKKKKK), chimeric H-Ras with the polylysine region of K-RasB at 175-180 (from UniProt P01112 1-189) (natural protein) , state its recorded pKd.
[A] 5.60
